# subjectOfTest: p97 ATPase WT (Homo sapiens (Human), UniProt P55072)
# Sequence (P55072 whole entry): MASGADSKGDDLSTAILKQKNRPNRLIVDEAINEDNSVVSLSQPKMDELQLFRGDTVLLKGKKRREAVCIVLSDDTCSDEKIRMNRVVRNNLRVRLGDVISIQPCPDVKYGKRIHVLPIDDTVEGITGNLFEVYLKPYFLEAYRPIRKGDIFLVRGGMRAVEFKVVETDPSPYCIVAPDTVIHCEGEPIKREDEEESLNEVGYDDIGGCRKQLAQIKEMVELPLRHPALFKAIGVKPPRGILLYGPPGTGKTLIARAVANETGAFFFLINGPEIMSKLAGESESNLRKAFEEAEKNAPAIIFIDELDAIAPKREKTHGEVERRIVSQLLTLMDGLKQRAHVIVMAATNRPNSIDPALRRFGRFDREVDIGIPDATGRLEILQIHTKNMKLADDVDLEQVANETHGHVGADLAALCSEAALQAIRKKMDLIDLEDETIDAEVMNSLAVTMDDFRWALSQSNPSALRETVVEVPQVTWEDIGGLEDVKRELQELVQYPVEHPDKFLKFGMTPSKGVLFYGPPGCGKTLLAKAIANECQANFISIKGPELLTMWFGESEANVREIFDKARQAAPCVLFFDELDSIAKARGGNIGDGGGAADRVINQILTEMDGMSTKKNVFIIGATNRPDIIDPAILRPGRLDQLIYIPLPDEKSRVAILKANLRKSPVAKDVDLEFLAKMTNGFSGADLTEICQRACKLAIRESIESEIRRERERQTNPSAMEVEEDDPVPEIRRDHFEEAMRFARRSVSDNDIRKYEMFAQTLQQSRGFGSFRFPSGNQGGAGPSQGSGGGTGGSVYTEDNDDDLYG
# protocolNotes: p97 ADP-Glo assay
# Assay type: biochemical
# conditionsUsed: Table 3; read-out: ADPGlo IC50
Threshold 400 nM. IC50 below it: TRUE. IC50 at it or above: FALSE.

[
  {
    "compound": "N#Cc1ccc2[nH]c(-c3cccc(N4CCC(NCc5ccccc5)CC4)c3)cc2c1",
    "labelValue": "FALSE"
  },
  {
    "compound": "CC(C)N1CCN(CCCNC2CCN(c3cccc(-c4cc5ccccc5[nH]4)c3)CC2)CC1",
    "labelValue": "TRUE"
  },
  {
    "compound": "CC(C)N1CCN(CCNC2CCN(c3cccc(-c4cc5c([nH]4)CCNC5)c3)CC2)CC1",
    "labelValue": "FALSE"
  },
  {
    "compound": "CCN1CCN(CCNC2CCN(c3cccc(-c4cc5ccccc5[nH]4)c3)CC2)CC1",
    "labelValue": "TRUE"
  },
  {
    "compound": "CC(C)N1CCC(NC2CCN(c3cccc(-c4cc5cc(C#N)ccc5[nH]4)c3)CC2)CC1 [drawing 226]",
    "labelValue": "TRUE"
  }
]

###

The entries below come with measured log10 IC50 values attached.
# subjectOfTest: p97 ATPase WT (Homo sapiens (Human))
# protocolNotes: p97 ADP-Glo assay
# Type: biochemical
# conditionsUsed: Table 3; read-out: ADPGlo IC50
# From the text: ADP-Glo™ (Promega Corp.) is a bioluminescent, homogeneous assay that measures ADP formed from a biochemical reactions. Because of its high sensitivity, the assay is suitable for monitoring enzyme activities at very early substrate conversions requiring very low amount of enzymes. The ADP-Glo assay can be conducted as described in Chou, T.-F.; Bulfer, S. L.; Weihl, C.
endpointLabel: log10 IC50 (log10 of the value in nM)

[
  {
    "cpdSmiles": "FC(F)(F)CN1CCN(CCNC2CCN(c3cccc(-c4cc5ccccc5[nH]4)c3)CC2)CC1",
    "log10 IC50": 3.11
  },
  {
    "cpdSmiles": "Cc1ccc(N2CCC(NC3CCN(C(C)C)CC3)CC2)cc1-c1cc2cc(C#N)ccc2[nH]1",
    "log10 IC50": 2.04
  },
  {
    "cpdSmiles": "CC(C)N1CCN(CCNC2CCN(c3cccc(-c4cc5cnccc5[nH]4)c3)CC2)CC1",
    "log10 IC50": 3.58
  },
  {
    "cpdSmiles": "CC(C)N1CCN(CC=C2CCN(c3cccc(-c4cc5ccccc5[nH]4)c3)CC2)CC1",
    "log10 IC50": 3.76
  },
  {
    "cpdSmiles": "[N-]=[N+]=Nc1cccc(CNC2CCN(c3cccc(-c4cc5cc(F)ccc5[nH]4)c3)CC2)c1",
    "log10 IC50": 2.83
  },
  {
    "cpdSmiles": "c1cc(-c2cc3ccccc3[nH]2)cc(N2CCC(NCCN3CCNCC3)CC2)c1",
    "log10 IC50": 2.49
  },
  {
    "cpdSmiles": "O=S1(=O)CCN(CCNC2CCN(c3cccc(-c4cc5ccccc5[nH]4)c3)CC2)CC1",
    "log10 IC50": 2.85
  },
  {
    "cpdSmiles": "Cc1ccc(N2CCC(NC3CCN(C)CC3)CC2)cc1-c1cc2ccccc2[nH]1",
    "log10 IC50": 2.54
  },
  {
    "cpdSmiles": "CC(C)N1CCN(C2(CNC3CCN(c4cccc(-c5cc6cc(F)ccc6[nH]5)c4)CC3)COC2)CC1",
    "log10 IC50": 1.61
  },
  {
    "cpdSmiles": "[N-]=[N+]=Nc1ccc(NCCNC2CCN(c3cccc(-c4cc5ccccc5[nH]4)c3)CC2)cc1",
    "log10 IC50": 3.75
  },
  {
    "cpdSmiles": "c1ccc(CN2CCN(CCNC3CCN(c4cccc(-c5cc6ccccc6[nH]5)c4)CC3)CC2)cc1",
    "log10 IC50": 2.48
  },
  {
    "cpdSmiles": "FC1(F)CCN(CCNC2CCN(c3cccc(-c4cc5ccccc5[nH]4)c3)CC2)CC1",
    "log10 IC50": 3.38
  },
  {
    "cpdSmiles": "Cc1ncncc1NC(=O)c1cccc(N2CCC(NCCN3CCN(C(C)C)CC3)CC2)c1",
    "log10 IC50": 4.36
  },
  {
    "cpdSmiles": "Cc1ccc2[nH]c(-c3cccc(N4CCC(NCCN5CCN(C(C)C)CC5)CC4)c3)cc2c1",
    "log10 IC50": 2.30
  },
  {
    "cpdSmiles": "O=C(Nc1ccccn1)C1CCN(c2cccc(-c3cc4cc(F)ccc4[nH]3)c2)CC1",
    "log10 IC50": 3.99
  },
  {
    "cpdSmiles": "CC(C)N1CCN(C2(CNC3CCN(c4cccc(-c5cc6cc(C#N)ccc6[nH]5)c4)CC3)COC2)CC1",
    "log10 IC50": 2.04
  },
  {
    "cpdSmiles": "Cc1ccc(N2CCC(NCCc3ncnn3C)CC2)cc1-c1cc2ccccc2[nH]1",
    "log10 IC50": 3.65
  },
  {
    "cpdSmiles": "CC(C)N1CCC(NC(=O)C2CCN(c3cccc(-c4cc5cc(F)ccc5[nH]4)c3)CC2)CC1",
    "log10 IC50": 3.59
  },
  {
    "cpdSmiles": "NC1CCN(c2cccc(-c3cc4ccccc4[nH]3)c2)CC1",
    "log10 IC50": 3.26
  }
]

###

# subjectOfTest: p97 ATPase WT (Homo sapiens (Human), UniProt P55072)
# protocolNotes: p97 ADP-Glo assay
# Assay type: biochemical
# conditionsUsed: Table 3; read-out: ADPGlo IC50
endpointLabel: log10(IC50) (log10 of the value in µM)

[
  {
    "cpdSmiles": "CC(C)N1CCN(CCNC2CCN(c3cccc(-c4cc5ccc([N+](=O)[O-])cc5[nH]4)c3)CC2)CC1",
    "subjectOfTest": "p97 ATPase WT (Homo sapiens (Human), UniProt P55072)",
    "endpointLabel": "log10(IC50)",
    "assayValue": 0.66
  },
  {
    "cpdSmiles": "CC(C)N1CCN(CCNC2CCN(c3cccc(-c4cc5c(F)cccc5[nH]4)c3)CC2)CC1",
    "subjectOfTest": "p97 ATPase WT (Homo sapiens (Human), UniProt P55072)",
    "endpointLabel": "log10(IC50)",
    "assayValue": 0.11
  },
  {
    "cpdSmiles": "CC(C)N1CCC(NC2CCN(c3cccc(-c4cc5cc(S(=O)(=O)NCc6ccccc6)ccc5[nH]4)c3)CC2)CC1",
    "subjectOfTest": "p97 ATPase WT (Homo sapiens (Human), UniProt P55072)",
    "endpointLabel": "log10(IC50)",
    "assayValue": 0.88
  },
  {
    "cpdSmiles": "CN1CCN(C2(CNC3CCN(c4cccc(-c5cc6ccccc6[nH]5)c4)CC3)CCCCC2)CC1",
    "subjectOfTest": "p97 ATPase WT (Homo sapiens (Human), UniProt P55072)",
    "endpointLabel": "log10(IC50)",
    "assayValue": -0.59
  },
  {
    "cpdSmiles": "Cn1ncnc1CCNC1CCN(c2cccc(-c3cc4cc(F)ccc4[nH]3)c2)CC1",
    "subjectOfTest": "p97 ATPase WT (Homo sapiens (Human), UniProt P55072)",
    "endpointLabel": "log10(IC50)",
    "assayValue": 0.11
  },
  {
    "cpdSmiles": "CN1CCC(NC2CCN(c3cccc(-c4cc5cc(F)ccc5[nH]4)c3)CC2)CC1",
    "subjectOfTest": "p97 ATPase WT (Homo sapiens (Human), UniProt P55072)",
    "endpointLabel": "log10(IC50)",
    "assayValue": -0.74
  },
  {
    "cpdSmiles": "Cn1ncnc1CCNC1CCN(c2cccc(-c3cc4cc(C#N)ccc4[nH]3)c2)CC1",
    "subjectOfTest": "p97 ATPase WT (Homo sapiens (Human), UniProt P55072)",
    "endpointLabel": "log10(IC50)",
    "assayValue": -0.05
  },
  {
    "cpdSmiles": "CC(C)N1CCN(CC(=O)NC2CCN(c3cccc(-c4cc5ccccc5[nH]4)c3)CC2)CC1",
    "subjectOfTest": "p97 ATPase WT (Homo sapiens (Human), UniProt P55072)",
    "endpointLabel": "log10(IC50)",
    "assayValue": 0.88
  },
  {
    "cpdSmiles": "Cc1ccc(N2CCC(NCCN3CCN(C(C)C)CC3)CC2)cc1-c1cc2cc(F)ccc2[nH]1",
    "subjectOfTest": "p97 ATPase WT (Homo sapiens (Human), UniProt P55072)",
    "endpointLabel": "log10(IC50)",
    "assayValue": -1.60
  },
  {
    "cpdSmiles": "CC(C)N1CCN(CCNC2CCN(c3cccc(-c4cc5cc(OC(F)(F)F)ccc5[nH]4)c3)CC2)CC1",
    "subjectOfTest": "p97 ATPase WT (Homo sapiens (Human), UniProt P55072)",
    "endpointLabel": "log10(IC50)",
    "assayValue": 0.57
  }
]
